- System: Potassium voltage-gated channel subfamily H member 2, brain isoform KCNH2 3.1 (human)
- method.summary: qHTS for Inhibitors of KCHN2 3.1: Mutant qHTS; note: % is set by controls: 0 for no effect and ±100 for the full control effect
- run.parameters: U2OS KCNH2 3.1, thallium flux FluxOr; hits give low values
Screen size: about 340,000 compounds; about 3,300 (0.97%) were called active. The full list was thinned out, with actives kept by preference.
# key: entry, value: activity change
Reply with just the number (in %).

Some solved entries appear below for comparison.
{"columns": ["compound", "measurement.target", "uom", "activity change"],
 "data": [
  ["Cc1sc2nc(CC(N)=O)[nH]c(=O)c2c1-c1ccccc1", "Potassium voltage-gated channel subfamily H member 2, brain isoform KCNH2 3.1 (human)", "%", 4],
  ["O=c1[nH]c(CN2CCOCC2)nc2scc(-c3ccccc3)c12", "Potassium voltage-gated channel subfamily H member 2, brain isoform KCNH2 3.1 (human)", "%", 0.718],
  ["NC(=O)Cc1nc2scc(-c3ccc(Cl)cc3)c2c(=O)[nH]1", "Potassium voltage-gated channel subfamily H member 2, brain isoform KCNH2 3.1 (human)", "%", -145]
]}

Per the reported Potassium voltage-gated channel subfamily H member 2, brain isoform KCNH2 3.1 (human) data, Cc1ccc(C(=O)NC(C)C(c2cccs2)N2CCOCC2)cc1C (stereo unspecified) has activity change of 2.91

Per the reported Potassium voltage-gated channel subfamily H member 2, brain isoform KCNH2 3.1 (human) data, COc1ccccc1NC(=O)C(CC(=O)O)Cc1cc(C)cc(C)c1 (stereo unspecified) has activity change of 12.9

Per the reported Potassium voltage-gated channel subfamily H member 2, brain isoform KCNH2 3.1 (human) data, `CCCCN1CC(C)(C)[C@H](CC(=O)Nc2ccc(Br)cc2)C1=O` has activity change of 5.46

* * *

- Tested on: Potassium voltage-gated channel subfamily H member 2, brain isoform KCNH2 3.1 (human)
- method.summary: qHTS for Inhibitors of KCHN2 3.1: Mutant qHTS; note: % is set by controls: 0 for no effect and ±100 for the full control effect
- run.parameters: U2OS KCNH2 3.1, thallium flux FluxOr; hits give low values
- Experimental: Many antipsychotic drugs that inhibit the neurotransmitter dopamine also bind to hERG1 channel which might help explain their antipsychotic activity but also produces cardiac side effects. […] U2OS cells were resuspended in cell media containing 10% fetal calf serum (FCS) at a concentration of 2 million cells / mL. […] A stimulation buffer was added to the plate and the second kinetic read (2 min) was obtained. […]
Among all 340,000 compounds or so, about 3,300 (0.97%) were called active. This excerpt belongs to a sample that is enriched for actives.
Lab note: compare activity change with -10%, writing true (1) if less and false (0) if equal or more.

Solved cases below.
{"columns": ["entry.smiles", "group"],
 "data": [
  ["O=C(Nc1cc(S(=O)(=O)N2CCOCC2)ccc1OCC(F)(F)F)c1ccc(N2CCCC2=O)cc1", "true (1)"],
  ["C[C@H]1CN([C@@H](C)CO)C(=O)CCCn2cc(nn2)CO[C@@H]1CN(C)S(=O)(=O)c1ccccc1C#N", "true (1)"],
  ["C=CCN1CCN(c2ccncc2S(=O)(=O)N2CCN(C)CC2)CC1", "false (0)"],
  ["Cc1ccc(-c2nc3ccc(Cl)cn3c2Cc2ccccc2)cc1", "false (0)"]
]}

Query :: Determine if `CNC(=O)C[C@H]1C(=O)N(c2ccc(OC)cc2)C[C@@H]1Cc1ccccc1` shows activity change strictly lower than -10%.
Result :: false (0)

* * *

- System: Potassium voltage-gated channel subfamily H member 2, brain isoform KCNH2 3.1 (human)
- method.summary: qHTS for Inhibitors of KCHN2 3.1: Mutant qHTS; note: % is set by controls: 0 for no effect and ±100 for the full control effect
- run.parameters: U2OS KCNH2 3.1, thallium flux FluxOr
Screen size: about 340,000 compounds; about 3,300 (0.97%) were called active.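 The calls were made as follows: active = maximum activity change below -70%; inconclusive = maximum activity change from -70% to -50%; inactive = maximum activity change above -50%.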 This excerpt belongs to a sample that is enriched for actives.
Result category, one only: 1.0 = active, 0.0 = inactive

{"columns": ["compound", "group"],
 "data": [
  ["O=C(Nc1ccccc1N1CCN(C(=O)c2ccccc2)CC1)c1ccco1", 0.0],
  ["CCCNC(=O)c1ccc(N2CCC3(CC2)CC(c2cccc(Br)c2)=NO3)c(NC(=O)c2ccco2)c1", 1.0],
  ["Cc1cc2oc(=O)cc(CN3CCN(S(=O)(=O)c4cccs4)CC3)c2cc1C(C)C", 0.0],
  ["Cc1ccccc1C(=O)Nc1cccc(-c2nnc(SCC(=O)O)n2C)c1", 1.0],
  ["CCc1ccc(S(=O)(=O)Nc2cc3c(cc2N2CCCCC2)n(C)c(=O)c(=O)n3C)cc1", 0.0]
]}

Attention now shifts to the item below.
Query :: Look up the recorded call for `COC(=O)c1ccc(N2CCOCC2)c(NC(=O)c2ccc(Br)o2)c1` in this test.
Result :: 0.0

* * *

- Tested on: Potassium voltage-gated channel subfamily H member 2, brain isoform KCNH2 3.1 (human)
- method.summary: qHTS for Inhibitors of KCHN2 3.1: Mutant qHTS; note: % is set by controls: 0 for no effect and ±100 for the full control effect
- run.parameters: U2OS KCNH2 3.1, thallium flux FluxOr; hits give low values
Out of some 340,000 compounds screened, about 3,300 (0.97%) were called active. The sample as a whole holds a higher share of actives than the screen did.
endpoint: activity change (%)
Reply with just the number (in %).

Some solved entries appear below for comparison.
{"columns": ["molecule", "observed.value"],
 "data": [
  ["O=C(N=C1SC2CS(=O)(=O)CC2N1Cc1ccccc1)c1ccccc1 (stereo unspecified)", -10.6],
  ["S=C1SCN(CCN2CCOCC2)CN1Cc1ccccc1", -10.5],
  ["Cc1ccc(/C=C/C(=O)Nc2cc(S(=O)(=O)N3CCCCCC3)ccc2OCC(F)(F)F)o1", -83.4]
]}

Value of activity change reported for the molecule COc1ccc(S(=O)(=O)N2CCCCC2)cc1C(=O)NC1CCS(=O)(=O)C1 (stereo unspecified) is 26.3

Value of activity change reported for the molecule `COc1ccc(CN2CN(C(C)C)CSC2=S)cc1` is -82.5

Value of activity change reported for the molecule `COc1ccc(CN2CN(C3CCCC3)CSC2=S)cc1` is -9.2

* * *

- System: Potassium voltage-gated channel subfamily H member 2, brain isoform KCNH2 3.1 (human)
- method.summary: qHTS for Inhibitors of KCHN2 3.1: Mutant qHTS; note: % is set by controls: 0 for no effect and ±100 for the full control effect
- run.parameters: U2OS KCNH2 3.1, thallium flux FluxOr
- Description: Many antipsychotic drugs that inhibit the neurotransmitter dopamine also bind to hERG1 channel which might help explain their antipsychotic activity but also produces cardiac side effects. […] U2OS cells were resuspended in cell media containing 10% fetal calf serum (FCS) at a concentration of 2 million cells / mL. […] A stimulation buffer was added to the plate and the second kinetic read (2 min) was obtained. […]
Screen size: about 340,000 compounds; about 3,300 (0.97%) were called active.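 The calls were made as follows: active = maximum activity change below -70%; inconclusive = maximum activity change from -70% to -50%; inactive = maximum activity change above -50%.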 This is one part of a sample in which actives are shown more often than they occur.
Result category, one only: active, inactive

Solved cases below.
{"columns": ["molecule", "group"],
 "data": [
  ["Cc1cc(=O)oc2cc(NC(=O)C3CC(=O)N(Cc4ccccc4)C3)ccc12 (stereo not given)", "active"],
  ["O=C(Nc1ccc(F)c([N+](=O)[O-])c1)C1CC(=O)N(Cc2ccccc2)C1 (stereo not given)", "inactive"],
  ["C[C@@H]1CN([C@H](C)CO)C(=O)CCCn2nncc2CO[C@@H]1CN(C)C(=O)OCc1ccccc1", "inactive"],
  ["CC1=C(C(=O)N(C)C)CC(CC(=O)NCCN2CCOCC2)C(=O)N1Cc1ccccc1 (stereo not given)", "inactive"],
  ["O=C(NC1CCN(Cc2ccccc2)CC1)c1cc(Br)c(Br)[nH]1", "inactive"]
]}

Query :: Look up the recorded call for `COc1cc(NC(=O)c2ccccc2NS(=O)(=O)c2ccc(Cl)s2)cc(OC)c1` in this test.
Result :: inactive

Query :: Look up the recorded call for `CCOc1ccc(CC(=O)NC2CCN(Cc3ccccc3)CC2)cc1` in this test.
Result :: inactive

Query :: Look up the recorded call for `C[C@H]1CN([C@@H](C)CO)C(=O)CCCn2cc(nn2)CO[C@@H]1CN(C)C(=O)Nc1ccccc1` in this test.
Result :: inactive

Query :: Look up the recorded call for `O=S(=O)(Nc1ccccc1Br)c1cccs1` in this test.
Result :: inactive

Query :: Look up the recorded call for `O=C(NC1CCN(Cc2ccccc2)CC1)c1ccc(Oc2cc(Cl)cc(Cl)c2)o1` in this test.
Result :: active

* * *

- Tested on: Potassium voltage-gated channel subfamily H member 2, brain isoform KCNH2 3.1 (human)
- method.summary: qHTS for Inhibitors of KCHN2 3.1: Mutant qHTS; note: % is set by controls: 0 for no effect and ±100 for the full control effect
- run.parameters: U2OS KCNH2 3.1, thallium flux FluxOr
About 3,300 (0.97%) of roughly 340,000 compounds were called active.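 Rule for the calls: active = maximum activity change below -70%; inconclusive = maximum activity change from -70% to -50%; inactive = maximum activity change above -50%.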 Shown is part of a subset that was picked to be rich in actives.
Result category, one only: label 1 (active), label 0 (inactive)

{"columns": ["compound", "group"],
 "data": [
  ["CC(C)(C)n1nnnc1C(c1ccc(Cl)cc1)N1CCSCC1 (configuration not stated)", "label 0"],
  ["O=C(CN1CCN(c2ccccc2)CC1)Nc1ccc(F)cc1", "label 0"],
  ["Cc1cccc(N(CC(=O)N2CCCC2)S(C)(=O)=O)c1C", "label 0"],
  ["CCN=C1S/C(=C\\c2cc(Br)ccc2OCC(=O)OCC)C(=O)N1CC", "label 1"],
  ["O=C(Nc1ccccc1-c1ccccc1)c1cccs1", "label 0"]
]}

Query :: Look up the recorded call for `O=C(Nc1ccc(N2CCOCC2)c(Cl)c1)c1ccc(S(=O)(=O)N2CCOCC2)cc1` in this test.
Result :: label 0

Query :: Look up the recorded call for `CC(C)Oc1ccc(CN2CCC(n3nccc3NC(=O)c3cccnc3)CC2)cc1` in this test.
Result :: label 1

Query :: Look up the recorded call for `O=S1(=O)CCN(Cc2ccccc2)CC1` in this test.
Result :: label 0

Query :: Look up the recorded call for `CCCCCCN1C[C@H](O)[C@@H](n2cc(C3CC3)nn2)C[C@@H]1c1ccc(Cl)cc1` in this test.
Result :: label 0

Query :: Look up the recorded call for `Cc1ccc(C(=O)Nc2ccccc2-c2ccccc2)cc1S(=O)(=O)Nc1ccccc1` in this test.
Result :: label 1
